Below, each entry is listed alongside its reported Binding response.
# study-system: T1, human LAP-TGFB1 Fc fusion (human)
# T1 construct: also called human LAP-TGFβ1-Fc; human LAP-TGFβ-Fc isoform 1
# T1 sequence (chain, as listed by the source limits assumed): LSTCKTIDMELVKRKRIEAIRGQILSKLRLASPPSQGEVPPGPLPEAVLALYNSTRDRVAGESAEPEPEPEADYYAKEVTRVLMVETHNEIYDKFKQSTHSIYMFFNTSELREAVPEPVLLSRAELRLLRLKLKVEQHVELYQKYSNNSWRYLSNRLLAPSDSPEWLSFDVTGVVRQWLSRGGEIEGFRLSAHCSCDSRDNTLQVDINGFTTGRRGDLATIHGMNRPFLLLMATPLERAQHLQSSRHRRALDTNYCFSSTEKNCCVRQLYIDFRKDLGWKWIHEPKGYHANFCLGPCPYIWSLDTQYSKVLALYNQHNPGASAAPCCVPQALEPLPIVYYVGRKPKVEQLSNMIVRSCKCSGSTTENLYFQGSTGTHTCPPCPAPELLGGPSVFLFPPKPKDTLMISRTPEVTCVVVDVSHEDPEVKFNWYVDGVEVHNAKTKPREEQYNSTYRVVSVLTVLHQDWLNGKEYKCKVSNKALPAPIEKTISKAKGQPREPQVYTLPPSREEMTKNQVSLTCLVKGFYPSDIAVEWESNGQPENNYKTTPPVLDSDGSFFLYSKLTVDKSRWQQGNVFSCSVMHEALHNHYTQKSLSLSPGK
# experimental-details: BLI off-rate screen
I only need the number, in nm, no unit after it.

Worked set:
# binder, readout-units, Binding response
data = [
    ("VH K59W (61BIT) (Fab, V domains shown, Light chain: parental 20E6 LC, implied) VH: EVQLVQSGAEVKKPGASVKVSCKASGYTFTSYWMHWVRQAPGQGLEWMGRIDPQSGGIWYAQKFQGRATLTVDTSTSTAYMELSRLRSDDTAVYYCARWDYGGYFDVWGQGTLVTVSS VL: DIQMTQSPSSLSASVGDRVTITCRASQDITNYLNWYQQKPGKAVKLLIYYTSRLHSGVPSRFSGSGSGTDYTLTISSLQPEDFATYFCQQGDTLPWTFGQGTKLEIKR", "nm", 0.035),
    ("VL L94D (32BIT) (Fab, V domains shown, Heavy chain: parental 20E6 Fab HC, implied) VH: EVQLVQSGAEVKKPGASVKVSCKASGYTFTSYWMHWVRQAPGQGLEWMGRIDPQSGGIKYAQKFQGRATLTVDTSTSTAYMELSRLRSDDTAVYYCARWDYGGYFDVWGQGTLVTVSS VL: DIQMTQSPSSLSASVGDRVTITCRASQDITNYLNWYQQKPGKAVKLLIYYTSRLHSGVPSRFSGSGSGTDYTLTISSLQPEDFATYFCQQGDTDPWTFGQGTKLEIKR", "nm", 0.195),
]

Let us examine a further case.
GET /values?readout=Binding response&item= VH K59Q (28BIT) (Fab, V domains shown, Light chain: parental 20E6 LC, implied) VH: EVQLVQSGAEVKKPGASVKVSCKASGYTFTSYWMHWVRQAPGQGLEWMGRIDPQSGGIQYAQKFQGRATLTVDTSTSTAYMELSRLRSDDTAVYYCARWDYGGYFDVWGQGTLVTVSS VL: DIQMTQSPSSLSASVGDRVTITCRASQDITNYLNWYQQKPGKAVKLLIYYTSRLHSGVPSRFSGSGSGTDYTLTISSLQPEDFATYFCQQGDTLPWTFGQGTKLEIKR 0.165
